FYI, the data here is from the nanobody polyreactivity screen of Harvey et al. (2022).

# method-description: yeast display, Sf9 membrane polyspecificity reagent, FACS + sequencing; frameworks hold sequencing errors

residue-string	polyreactivity (PSR sort gate)
QVQLVESGGGLVQAGGSLRLSCAASGFTFDSYAMGWYRQAPGKERELVAAITWDGGSTYYADSVKGRFTISRDNAKNTVYLPMNSLKPEDTAVYYCAAVSGFYDQYDYWGQGTQVTVSS	low polyreactivity
QVQLVESGGGLVQAGGSLRLSCAASGRTFNGNTMGWYRQAPGKERELVAAISRRGGSTYYADSVKGRFTISRDTAKNTVYLQMNSLKPEVTAVYYCATHSTFGYDYWGQGTQVTVSS	high polyreactivity
QVQHVESGGALVQAGGILRLSCAASGYTFYVYAMGWYRQAPGKERELVAAISGGSNTYYADSVKGRFTISRDNGKNTVYLQMNSLKPEDTAVYYCAKSSTTYRQRARYDYWGQGTQVTVSS	high polyreactivity
QVQLVESGGGLVQAGGSLRLSFAASGFTLVGYTMGWYRQAPGKERELVAAINWSGGRTYYADSVKGRFTISRDNAKNTVYLQMNSLKPVDTAVYYCAADSLRYKKYYYWGQGTQVTVSS	high polyreactivity
QVQLVESGGGLVQAGGSLRLSCAASGFTFGPYTMGWYRQAPGKERELVAAISRSGTGTYYADSVKGRFTISRDNAKNTVYLQMNSLKPEDTAVYYCAADNGDNHGYYWGQGTQVTLSS	high polyreactivity
QVQLVESGGGLVQAGGSLRLSCAASGSIFDVNAMGWYRQAPGKERELVAGISWSGGSTYYADSVKGRFTISRDNAKNTVYLQMNSLKPEDTAVYYCNAEGPIYFYFYRGMDYWGQGTQVTVSS	low polyreactivity
QVQLVESGGGLVQAGGSLRLSCAASGFTLWYNGMGWYRQAPGKERELVATISSRGGGSTYYADSVKGRFTISRDNAKNTVYLQMNSLKPEETAVYYCAADAYYLVPTEGDYWGQGTQVTVSS	low polyreactivity
QVQLVESGGGLVQAGGSLRLSCADSGSIGYYAMGWYRQAPGKERELVAVISRSGTGTYYADSVKGRFTISRDNANNTVYLQMNSLKPEDTAVYYCNAETYTYRYENDYWGQGTQVTVSS	high polyreactivity
QVQLVESGGGLVQAGGSLRLSCAASGRTLLYYAMGWYRQAPGKERELVARISTGGGTSYADSVKGRFTISRDNAKNTVYLQMNSLKPEDTAVFYCAAKRSYRRALLTLDYWGHGTQVTVSS	high polyreactivity
QFQLVESGRGLVQAGGSLRLSCAASGNTFGPYAMGWYRQAPGKERELVAAISSGGSTNYADSVKGRFTISRDNAKNTVYLQMNSLKPEDTAVYYCAAPYRSYVRYKYDYWGQGTLVTVSS	low polyreactivity
QVQLVESGGGLLQAGGSLRLSCAATGITFDRYAMGWYRQAPGKERELVAAITSGGRTYYADSVKGRFTISRDNAKNTVYLQMNSLKPEDTAVYYCNATRGQYVGRYYYWGQGTQVTVSS	high polyreactivity
QVQLVESGGCLVQAGASLRLSCAASGSISKSYAMGWYRQAPGKEREFVAAISWRGGSTYADSVKGRFTISRDNAKNTVYLQMNSLKPEDTAVYYCAATNYGTFWGGQSERYDYWGQGSQVTVSS	low polyreactivity
QVHLVESGGGLVQEGGSLRLTSAASGITFVRNTLGWYRQAPGKERELVAAIDSGGNTYADSVKGRFTITRDNAKNTVYLQMNSLKPEDTAVYFCAVDGGEVSSYGYWGQGTQVTVSS	low polyreactivity
QVQLVETGGGLVQAGGSLRLSCAASGLIFSYKAMGWYRQAPGKERELVGAISRGGSTYYADSVKGRFTISRDNAKNTVYLQMNSLKRVDTAVYYCAADFYGWVDYWGQGTQVTVSS	high polyreactivity
QVQLVESGGGLVQAGGSLRLSCAASGRIFRGYLMGWYRQAPGKERELVAVITSGGRTYYADSVKGRFTISRDNAKNTVYLQMNSPKPEDTAVYYCATYPRYKPYYYWGQGTQVTVSS	low polyreactivity
QVQHVESGGGLVQAGGSLRLSCAASGRIFPFNAMGCYRQAPGKETEFVAAIRLSGTRTYYADSVKGRFTISRDNAKNTVYLQMNCLNPEDTAVYYCAAKFSGHYYNYDYWGQGTQVTVSS	high polyreactivity
QVQLVESGGGLVQAGGSLRLSCAASGRTFKPYAMGWYRQAPGKERELVAAIRSAGTTNYADSVKGRFTISRDNAKNTVYLQMNSLKPEDTAVYYCNAGTYLRRYYGFDYWGQGTQVTVSS	high polyreactivity
QVQLVESGGGLVQAGGSLRLAVLPPELTSTLNDMGWYRQAPGKERELVAAITRGGSTNYADSVKGRFTISRDNAKYTFYLQMNSMKPEDSAVYYCAAPYAGLRDGGDYWGQGTQVTVSS	low polyreactivity
QVELVESGGGLVQAGGSLRISCDASGSTFRWYAMGWYRQGPGKERELVAAINRSGGSTYYADSVKGRFTISRDNAKNTVYLQMNSLKPEDTAVYYCEARWYSSSRWYKYNYWGQGTQVTVSS	high polyreactivity
QVQLVESGGGLVQAGGSLRLSSAASGSIFSTNEMGCYRQAPGKERELVAAISVSGGSTYYADSVKGRFTISRDNAKNTVYLQMNSLKPEDTALYYCNADYTRGTMYYWGQGTQVTVSS	low polyreactivity
QVQLVESGGGLVQAGGSLRLSCAASGLTFSRYAMGWYRQAPGTERELVAVISRSGGSTYYADSVKGRFTISRDNAKNTVYLQMNSLIPEDTAVYYCAVRAYIKMDYWGQGTQVTVSS	high polyreactivity

###

# method-description: yeast display, Sf9 membrane polyspecificity reagent, FACS + sequencing; frameworks hold sequencing errors

residue-string	polyreactivity (PSR sort gate)
QVQLVDSGGGLVQAGGSLRLSCAASGSIFPDNAMGWYRQAPGKEWEFVAAINWSTGTTYYADSVKGRFTISRDNAKNTVYLQMNSLKPEDTAVYYFNASDQAKYDYWGQGTQVTVSS	low polyreactivity
QVQLVESGGGLVQAGGSLRLSCAATGRTIHGYAMGWYRQAPGKERELVAAITGTGGRTYYADSVKGRFTISRDNAKNTVYLQMNSLKPEDTAVYYCAARPWIKSGYWGQGTQVTVSS	high polyreactivity
QVQLVESGGGLVQAGGSLRLSCAASGSTFERYAMGWYRQEPGKEREFVAAISAIGDSTYYADSVKGRFTITRDNAKNTVYLQMNILKPEDTAVYYCAARYTPYHIGRGYYYWGQGTQVTVSS	high polyreactivity
QVQLVESGGGLVQAGGSLRLSCAASGLIFFINDMGWYRQAPGKERELVAAITSGGSTYYADSVKGRFTISRDNAKNTVYLQMNSLKPEDTAVYYCAADSYDWYDYWGQGTQVTVSS	high polyreactivity
QVQLVESGGGLVQAGGSLRLSCAASGRIFRWNAMGWYRQAPGKERELVAVISSGGSTNYADSVKGRFTISRDNAKNTVYLQMNSLKPEDTAVYYCAKGLIRYSHLDYWGQGTQVTVSS	low polyreactivity
QVQLVESGGGLVQAGGSLRLSCAASGFNFNKNAMGWYRQAPGKERELVAAISGTGGSTYYADSVKVRFTISRDNAKNTVYLQMNSLKPEDTAVYFCASRRYRQFSTGGQPGYYWGQGTLVTVSS	high polyreactivity
QVQLVESGGRLVQAGGSLRLSCAASGSTFTVIGMGWYRQAPGKERELVASITWSGGSTYYADSVKGRFTISRDNAKNTVYLQMTSLIPEDTAVYYCAADEKLYITGYDYWGQGTQVTVSS	low polyreactivity
QVQLVESGGGLVQAGGSLRLSCAASGRTYIYNAMGWYRQAPGKERELVAAISFRGGSTYYADSVKGRFTISRDNAKNTVYLQMNSLKPEDTAVYYCNAVRFYRYGWGQGTQVTVSS	high polyreactivity
QFQLVESGGGLVQAGGSLRLSCAASGRIFYYYAMGWYRQAPGKERELVAAITRGGSTYADSVKGRFTISRDNAKNTVYLQMNSLKPEDTAVYYCAATYWYWDFRWMDYWGQGTQVTVSS	high polyreactivity
QVQLVESVGGLVQAGGSLRLSCASSGITFWYYAMGWYRQAPGKERELVAAISYSGDSTYYADSVKGRFTISRDNAKNTVYLQMNSLKPEDTAVYYCAARTRAGAWTSKYHDYWGQGTQGTVSS	high polyreactivity
QVQLVESGGGLDQAGGSLRLSCAASGNIFYRYAMGWYRQAPWKERELVAAISGNSGNTYYADSVKGRFTISRDNAKNTVYLQMNSLKPEDTAVYYCAAERRAFGHYSWGQGTQVTVSS	high polyreactivity

###

# method-description: yeast display, Sf9 membrane polyspecificity reagent, FACS + sequencing; frameworks hold sequencing errors

residue-string	polyreactivity (PSR sort gate)
QVQLVESGGGLVQAGGSLRLSCAASGSTFELYAMGLYRQAPGKERELVASITGDSTNYADSVKGRFTISRDNAKNTVYLQMNSLKPEDTAVYYCAAEYVPYYEYESWGQGTQVTVSS	low polyreactivity
QVQLVESGGGLVQAGGSLRLSCAASGRIFWANAMGWYRQAPGKERELVAAISYSGVSTYYADSVKGRFTISRDNAKNTVYLQMNSLKPEDTAVYFCAADRYRKYYYWGQGTQVTVSS	high polyreactivity
QVQLVESGGGLVQAGGSLRLSCAASGFTFVWYAMGWYRQAPGKERELVAAISRRGTRTYYADSVKGRFTISRDNAKNTVYLQMNSLKPEDTAVYYCAASPWGGYGYWGQGTQVTLSS	high polyreactivity
QVQLVESGGGLVQAGGSLRLSCAASGFTFPYYSMGWYRQAPGKERELVAAINRSGGTKYADSVKGRFTISRDNAKNTVYVQMNSLKPEDTAVYDCAADSFYSRSRYDYWGQGSQVTVSS	high polyreactivity
QVQLVESGGGLVQAGGSLRLSCAASGRTFTAYTMGWYRQAPGKERELVASISSGVTYADSVKGRFTISRDNAKNTVYVQMNSLKPEDTAVYYCAARLWYVQGYVPYVHHRFDYWGQGTQVTVSS	low polyreactivity
